What follows is literature data on pKi for Hepatocyte growth factor receptor (Homo sapiens, UniProt P08581).
pKi: −log10 of the molar value.

Examples with their reported pKi follow.
COMPOUND STRUCTURE STRING | pKi
Cc1cccc(-c2c(N)nn3cc(-c4ccncc4)cnc23)n1 | 5.30 to 6.30
Nc1ncc(-c2ccc(N3CCCC3)nc2)cc1-c1nnnn1-c1cccc(F)c1F | ≥ 7.00
Nc1ncc(-c2cnn([C@H]3CCCNC3)c2)nc1-c1nnnn1-c1cccc(F)c1F | ≥ 7.00

Task: Returns the measured pKi for the input compound. Input: `CS(=O)(=O)Nc1ccc(-c2cnc3[nH]cc(-c4oncc4-c4cccc(F)c4F)c3c2)cc1`
Result: > 6.70

Task: Consider next the compound `CNC(=O)c1cccnc1Nc1ccc(Oc2ccnc3cc(OC)c(OC)cc23)cc1` in the same way.
Result: 6.30

Task: Please answer likewise for `Nc1ncc(-c2ccoc2)cc1-c1nnnn1-c1cccc(F)c1F`
Result: ≥ 7.00

Task: Field entry: `Cn1cc(-c2cccc(Cl)c2Cl)c(-c2cc(-c3ccc(N4CCCC4)nc3)cnc2N)n1`
Result: 6.00 to 7.00

Task: One more compound: `Nc1nn2cc(-c3cccnc3N3CCN(Cc4ccncc4)CC3)cnc2c1-c1ccccn1`
Result: 5.30 to 6.30

----------
Compiled literature Ki, tested on Hepatocyte growth factor receptor (Homo sapiens, UniProt P08581).

COMPOUND STRUCTURE STRING | Ki
CCNC(=O)Nc1nc2cc(F)c(-c3cnc(N)c(-c4nnnn4-c4cccc(F)c4F)n3)cc2[nH]1 | 100 to 1000 nM

Task: Notebook entry, Hepatocyte growth factor receptor (Homo sapiens, UniProt P08581) assay: Ki of `CN1CCCN(c2ccc(-c3cnc4c(-c5ccccn5)c(N)nn4c3)cn2)CC1` = ?
Result: < 500 nM

Task: And the next one, `Nc1nc2cc(-c3cnc(N)c(-c4nnnn4-c4cccc(F)c4F)c3)c(F)cc2[nH]1` ?
Result: ≤ 100 nM

Task: Now the compound `O=c1c2[nH]cc(-c3oncc3-c3cccc(F)c3F)c2ccn1Cc1ccccc1`
Result: 1000 to 12500 nM

Task: Now this one: `CN(CCCN)C(=O)c1ccc(-c2cnc3c(-c4ccccn4)c(N)nn3c2)nc1`
Result: < 500 nM

Task: Also, `Nc1nn2cc(-c3ccccc3O)cnc2c1-c1ccccn1` please.
Result: 500 to 5000 nM

Task: Field entry: `Nc1ncc(-c2ccc(CN3CCCC3)cc2)cc1-c1nnc(O)n1-c1cccc(F)c1F`
Result: 100 to 1000 nM

Task: And for `CC(C)CNC(=O)c1cnc2c(-c3ccccn3)c(N)nn2c1` ?
Result: 500 to 5000 nM

----------
Consider the following Ki data for Hepatocyte growth factor receptor (Homo sapiens, UniProt P08581), collected from several reports.

Reference set, count: 5
COMPOUND STRUCTURE STRING | Ki
Nc1ncc(-c2cc3c(s2)CCNCC3)cc1-c1nnnn1-c1cccc(F)c1F | ≤ 100 nM
Nc1ncc(-c2cccc3c2OC(F)(F)O3)cc1-c1nnnn1-c1cccc(F)c1F | 100 to 1000 nM
CN(CC1OCCO1)C(=O)c1cccc(-c2cnc3c(-c4ccccn4)c(N)nn3c2)n1 | < 500 nM
CCN(CCN)C(=O)c1cccc(-c2cnc3c(-c4ccccn4)c(N)nn3c2)n1 | < 500 nM
CCCN(CC)c1cc(-c2c(N)nn3cc(-c4ccncc4)cnc23)ncn1 | < 500 nM

Task: // Ki lookup, key: `CS(=O)(=O)Nc1cccc(-c2cnc3c(-c4ccccn4)c(N)nn3c2)c1`
Result: < 500 nM

Task: What do you get for `Nc1ncc(-c2cc(F)c(N)c(F)c2)cc1-c1nnnn1-c1cccc(F)c1F` ?
Result: ≤ 100 nM

Task: Then `Nc1ncc(-c2ccccn2)cc1-c1nnnn1-c1cccc(F)c1F` ?
Result: 100 to 1000 nM

Task: Also `CN(C)Cc1ccnc(-c2cnc3[nH]cc(-c4oncc4-c4cccc(F)c4F)c3c2)c1` , if possible.
Result: < 200 nM

Task: Then what about the compound `CCC(CC)C(=O)Nc1ccc(-c2cnc(N)c(-c3nnnn3-c3cccc(F)c3F)c2)cc1` ?
Result: ≤ 100 nM

Task: What do you have for `CN(C)Cc1ccc(-c2cnc(N)c(-c3nnnn3-c3c(F)cccc3Cl)c2)cc1` ?
Result: ≤ 100 nM

Task: `C[C@@H](NC(=O)c1nc(-c2cccnc2)cnc1N)c1nnc2ccc(Nc3cccc(Cl)c3)nn12` , same question.
Result: ≤ 250 nM

----------
Kindly find below Ki information for UniProt:P08581 taken from the literature.

These recorded examples may help you get a feel for the data.
COMPOUND | Ki
CC(C)[C@@H](NC(=O)c1nc(-c2ccccc2)cnc1N)c1nnc2ccc(Nc3cccc(Cl)c3)nn12 | > 2.5 µM
CN1CCN(c2ccc(-c3cnc4[nH]cc(-c5nncn5-c5cccc(F)c5F)c4c3)cn2)CC1 | < 0.2 µM
Cc1cnc2c(-c3cc(NC(C)C)ncn3)c(N)nn2c1 | < 0.5 µM

Switching to the query record.
Task: Entry `O=C(NCCCn1ccnc1)c1cc(-c2nncn2-c2cccc(Cl)c2Cl)c[nH]1` , system UniProt:P08581: what Ki was measured?
Result: 1 to 10 µM

----------
pKi: −log10 of the molar value.
pKi values for Hepatocyte growth factor receptor (Homo sapiens, UniProt P08581) compiled from several publications are listed below.

COMPOUND | pKi
Nc1ncc(-c2cnc(C3CCNCC3)s2)cc1-c1nnnn1-c1cccc(Cl)c1F | ≥ 7.00
COc1ccc(-c2cnc(N)c(-c3nnnn3-c3cccc(F)c3F)c2)cc1OC | ≥ 7.00
CS(=O)(=O)Nc1ccccc1-c1cnc2c(-c3ccccn3)c(N)nn2c1 | 5.30 to 6.30
C[C@@H](NC(=O)c1nc(-c2ccc(C3(O)CCNCC3)cc2)cnc1N)c1nnc2ccc(Nc3cccc(Cl)c3)nn12 | ≥ 6.60
COc1ccc(F)cc1-n1nnnc1-c1cc(-c2ccc(CN3CCCC3)cc2)cnc1N | 6.00 to 7.00
C[C@@H](C(=O)N1CC=C(c2cnc(N)c(-c3nnnn3-c3cccc(F)c3F)c2)CC1)N1CCCC1=O | 6.00 to 7.00

Task: Item `NCc1ccc(-c2cnc(N)c(-c3nnnn3-c3cccc(F)c3F)c2)cn1` has what recorded pKi?
Result: 6.00 to 7.00

Task: Another compound to check: `CCN(C(=O)c1c(N)nn2cc(-c3ccncn3)cnc12)C(C)C`
Result: 5.30 to 6.30

Task: Now try `COCCN1CCC(n2cc(-c3cnc(N)c(-c4nncn4-c4cccc(F)c4F)c3)cn2)CC1` .
Result: ≥ 7.00

Task: Same thing, different compound: `C[C@@H](c1ccc2ncccc2c1)c1nnc2sc(-c3cnn(C)c3)nn12`
Result: > 6.52

----------
Please find below Ki measurements for Hepatocyte growth factor receptor (Homo sapiens, UniProt P08581), combined from several publications.

Past entries and their recorded results:
COMPOUND | SYSTEM UNDER TEST | MEASUREMENT
Nc1ncc(-c2cnn(C3CCN(C4CCC4)CC3)c2)cc1-c1nnnn1-c1cccc(F)c1F | Hepatocyte growth factor receptor (Homo sapiens, UniProt P08581) | ≤ 100 nM
Nc1ncc(-c2ccc(C3NC(=O)NC3=O)cc2)cc1-c1nnnn1-c1cccc(F)c1F (centres unmarked) | Hepatocyte growth factor receptor (Homo sapiens, UniProt P08581) | ≤ 100 nM
CCN(Cc1ccncc1)C(=O)c1c(N)nn2cc(-c3ccncn3)cnc12 | Hepatocyte growth factor receptor (Homo sapiens, UniProt P08581) | 500 to 5000 nM
C[C@@H](NC(=O)c1nc(-c2cccc(N3CCNCC3)c2)cnc1N)c1nnc2ccc(Nc3cccc(Cl)c3)nn12 | Hepatocyte growth factor receptor (Homo sapiens, UniProt P08581) | ≤ 250 nM
CCN1CCN(C(=O)c2ccc(-c3cnc4c(-c5ccccn5)c(N)nn4c3)nc2)C(O)C1 (centres unmarked) | Hepatocyte growth factor receptor (Homo sapiens, UniProt P08581) | < 500 nM
CN(C)Cc1ccc(-c2cnc(N)c(-c3nnsc3-c3cccc(Cl)c3Cl)c2)cc1 | Hepatocyte growth factor receptor (Homo sapiens, UniProt P08581) | ≤ 100 nM
CN(C)Cc1ccc(-c2cnc(N)c(-c3nc4cnccc4n3-c3cccc(F)c3F)c2)cc1 | Hepatocyte growth factor receptor (Homo sapiens, UniProt P08581) | ≤ 100 nM

API: the following record is the query input.
Task: Give recorded Ki with Hepatocyte growth factor receptor (Homo sapiens, UniProt P08581) for the following compound: `Nc1ncc(-c2cnn([C@H]3CCNC3)c2)nc1-c1nnnn1-c1cccc(F)c1F`
Result: ≤ 100 nM

----------
Published Ki for Hepatocyte growth factor receptor (Homo sapiens, UniProt P08581), assembled from different documents, is shown next.

Use these answered entries as a reference point.
COMPOUND | Ki
Nc1nn2cc(-c3ccncc3)cnc2c1-c1cc(Nc2ccccc2)ncn1 | < 500 nM
Nc1nn2cc(-c3ccc(CN4CCC(N)CC4)cc3)cnc2c1-c1ccccn1 | < 500 nM
Nc1ncc(C2=CCN(C(=O)OC3CCOC3)CC2)cc1-c1nnnn1-c1cccc(F)c1F (centres unmarked) | ≤ 100 nM
Nc1nn2cc(-c3ccc(N4CCN(CCOCCO)CC4)nc3)cnc2c1-c1ccccn1 | < 500 nM

Task: Quick check: Ki on Hepatocyte growth factor receptor (Homo sapiens, UniProt P08581), item `Nc1ncc(-c2cnn(C(c3ccccc3)(c3ccccc3)c3ccccc3)c2)cc1-c1nnnn1-c1cccc(F)c1F` ?
Result: 100 to 1000 nM

Task: Do the same for `CN(C)c1ccc(-c2cnc3[nH]cc(-c4oncc4-c4cccc(F)c4F)c3c2)cc1` please
Result: < 200 nM

Task: Another compound to check: `Nc1ncc(-c2cc(C(=O)O)cs2)cc1-c1nnnn1-c1cccc(F)c1F`
Result: 100 to 1000 nM

Task: Next: `Fc1cccc(-c2cnoc2-c2c[nH]c3ncc(C4CCNCC4)cc23)c1F`
Result: < 200 nM

Task: Subsequent entry: `CC(C)(C)CC(=O)Nc1ccc(-c2cnc(N)c(-c3nnnn3-c3cccc(F)c3F)c2)cc1`
Result: ≤ 100 nM
